# Test system: 292921-168-R-J2-PDC complex spheroid growth;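 also: spheroids exposed to compounds for seven days after three days of growth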
# Test Method Notes: Anticancer human tumor 292921-168-R-J2-PDC patient-derived pancreatic carcinoma cell line growth inhibition [AhR]; active = viability on the fitted dose curve at most 10% of control; inactive = the rest
# Condition Set: second compound 0.1 µM; first compound 0.3 µM
Outcomes: active, inactive

>  <Molecule>
CCN(c1cc(-c2ccc(CN3CCOCC3)cc2)cc(C(=O)NCc2c(C)cc(C)[nH]c2=O)c1C)C1CCOCC1 + Cc1ccccc1N=Nc1ccc(NC(=O)c2ccnn2C)c(C)c1

>  <Category Label>
inactive

$$$$
>  <Molecule>
Nc1ncn(C2CC(O)C(CO)S2)c(=O)n1 (stereo unspecified) + Cc1cncc(-c2nc(NCCc3c[nH]c4ccccc34)c3ncn(C(C)C)c3n2)c1

>  <Category Label>
inactive

$$$$
>  <Molecule>
O=C(C=Cn1cnc(-c2cc(C(F)(F)F)cc(C(F)(F)F)c2)n1)NNc1cnccn1 + Cc1cncc(-c2nc(NCCc3c[nH]c4ccccc34)c3ncn(C(C)C)c3n2)c1

>  <Category Label>
inactive

$$$$
>  <Molecule>
CCc1c2c(nc3ccc(O)cc13)-c1cc3c(c(=O)n1C2)COC(=O)[C@]3(O)CC + Cc1cncc(-c2nc(NCCc3c[nH]c4ccccc34)c3ncn(C(C)C)c3n2)c1

>  <Category Label>
active

$$$$
>  <Molecule>
Nc1ncn(C2CC(O)C(CO)S2)c(=O)n1 (stereo unspecified) + CC(CO)NC(=O)c1cc(-c2ccc(Cl)cc2)nn(-c2cnn(C)c2)c1=O

>  <Category Label>
inactive

$$$$
>  <Molecule>
CCN(c1cc(-c2ccc(CN3CCOCC3)cc2)cc(C(=O)NCc2c(C)cc(C)[nH]c2=O)c1C)C1CCOCC1 + Cc1cncc(-c2nc(NCCc3c[nH]c4ccccc34)c3ncn(C(C)C)c3n2)c1

>  <Category Label>
inactive

$$$$
